Value source: patent US9289443B2

method_description: Cell cytotoxic test (MTT) on Huh-luc/neo-ET cells
Type: cell-based
measurement_conditions: human, concentration for 50% cell kill, two-day culture

- compound: "C=CC(C)(O)CCCC(C)C(=O)OC1C(OC2OCC(OC3OC(CO)C(O)C(O)C3O)C(OC3OCC(O)C(OC4OC(CO)C(O)C(O)C4O)C3O)C2O)COC(OC(=O)C23CCC(C)(C)CC2C2=CCC4C5(C)CCC(OC6OC(CO)C(OC7OC(CO)C(O)C(OC8OCC(O)C(O)C8O)C7O)C(O)C6O)C(C)(C)C5CCC4(C)C2(C)CC3O)C1O (stereo not drawn)"
  CC50 at 2 days: "39.1 µM"
- compound: "C/C=C(\\C)C(=O)OC1C(OC(C)=O)C2(C(=O)O)C(CC1(C)C)C1=CCC3C4(C)CCC(OC5OC(CO)C(O)C(OC6OC(CO)C(O)C(OC7OC(C)C(O)C(O)C7O)C6O)C5O)C(C)(C)C4CCC3(C)C1(C)C(OC(C)=O)C2OC(C)=O (stereo not drawn)"
  CC50 at 2 days: "94.8 µM"
- compound: "C=CC(C)(O)CC/C=C(\\C)C(=O)O[C@H]1[C@H](O)[C@@H](CO)OC(OC(=O)[C@]23CCC(C)(C)CC2C2=CCC4[C@@]5(C)CC[C@H](OC6O[C@H](COC7OC[C@H](O)[C@H](O)[C@H]7OC7OC[C@@H](O)[C@H](O)[C@H]7O)[C@@H](O)[C@H](O)[C@H]6O)C(C)(C)C5CC[C@@]4(C)[C@]2(C)CC3)[C@@H]1OC1OC(C)C(OC2OC[C@@H](O)[C@H](OC3OC[C@@H](O)[C@H](O)[C@H]3O)[C@H]2O)C(O)C1O (stereo partly drawn)"
  CC50 at 2 days: "64.1 µM"
